Tested on: RXF 393 renal
Assay: NCI-60 one-dose screen, 48 h (100 = growth as untreated, 0 = no growth, -100 = all killed)
Conditions: 10 µM unless noted
The panel holds about 83,000 compounds, 20% with a hit somewhere; the sample as a whole holds those more often.
Given measured growth, output t if it is greater than or equal to 70% and f if not.

(Q) Is the recorded value of growth equal to or greater than 70% for this compound? "CC1(C)CC[C@]2(C(=O)N3CCOCC3)CC[C@]3(C)C(=CC[C@@H]4[C@@]5(C)C/C(=C/c6ccco6)C(=O)C(C)(C)[C@@H]5CC[C@]43C)[C@@H]2C1"
(A) f

(Q) Can you handle "CCOC(=O)c1c(N)c(C#N)cn1-c1cc(OC)c(OC)c(OC)c1" next?
(A) t

(Q) Query "C[C@@H](Nc1ncnc2ccc(-c3cnc(Cl)c(NS(C)(=O)=O)c3)cc12)c1ccccc1" next
(A) f

(Q) Note, next up: "O=C1/C(=C/C=C/c2ccco2)SC(=S)N1C1CCCCC1"
(A) f

(Q) Next compound up: "COc1cccc2c1CN(C(=O)c1ccc(O)c(C(=O)N3Cc4ccc(OCCC[P+](c5ccccc5)(c5ccccc5)c5ccccc5)cc4C3)c1)C2"
(A) t

(Q) Next entry: "CS(=O)(=O)c1ncc(-c2ccccc2)cn1"
(A) t

(Q) Would you kindly repeat that for "Cc1ccc(-c2nn(-c3ccccc3)cc2/C=C/C(=O)c2ccc(NC(=O)CCCCCCC(=O)NO)cc2)cc1" ?
(A) f

(Q) Also, CC(C)(C)n1nnnc1C(Nc1cccc2c1OCO2)c1cc2cccc3ccc4cccc1c4c32 (centres undefined) please.
(A) f

* * *

System: SW-620 colon
Test: NCI-60 one-dose screen, 48 h (100 = growth as untreated, 0 = no growth, -100 = all killed)
Details: 10 µM unless noted
Compounds without any hit were thinned out: in the full panel of roughly 83,000, 20% have a hit.
measure: growth (%)
// return numeric value only (unit: %, not printed)

(Q) May I ask what growth has been recorded for "CC/C(=C/c1cc(OC)ccc1O)c1ccc2cc(OC)ccc2[o+]1" ?
(A) 33.2

(Q) Do the same for "CCOc1ccc(C(=O)Nc2ncc(Cc3ccc(F)cc3)s2)cc1" please
(A) 26.1

(Q) Also "Nc1nc(Nc2ccccc2SSc2ccccc2Nc2nc(N)nc(-c3ccccc3)n2)nc(-c2ccccc2)n1" ?
(A) 70.5

(Q) Try COC(=O)/C=C/c1c(C2(C)NC(=O)c3ccccc3N2)c(=O)oc2ccc(Cl)cc12 (centres undefined) next.
(A) 96.3

* * *

Test system: HS 578T breast
Assay: NCI-60 one-dose screen, 48 h (100 = growth as untreated, 0 = no growth, -100 = all killed)
Details: 10 µM unless noted
This is part of a sample that, as a whole, favours compounds with a hit. Of some 83,000 tested, about 20% had one in any assay.
Please provide measured growth for the entries that follow.
Return type: number; implicit unit %.

(Q) Quick one: growth for Cc1ccc2c(c1)C13C(=C2Br)CCCN1C(=O)c1ccccc13 (centres undefined) ?
(A) 94.3

(Q) Please do the same for "C#CCn1cccc1CNc1ccc(OC)cc1" as well.
(A) -40

(Q) What about "O=S(=O)(Oc1ccc(-c2nnc(Nc3ccccc3)s2)cc1)C(F)(F)C(F)(F)C(F)(F)C(F)(F)C(F)(F)C(F)(F)F" ?
(A) 98.4

(Q) What do we get for "CNC(=O)c1cc(-c2ccc(NC(=S)Nc3cc(C(F)(F)F)cc(C(F)(F)F)c3)cc2)nc2cccnc12" ?
(A) 93.9

(Q) Thanks! And "CCCCCc1ccc(S(=O)(=O)Nc2cccc(-c3csc(NC(=O)CNCCN(C)C)n3)c2)cc1" ?
(A) 90.9

(Q) Lookup O=C(NNc1nc2cc(F)ccc2n2c(CN3CC4CNCC4C3)ccc12)c1cnccn1 (centres undefined)
(A) 72.5

(Q) Moving on to the next molecule: Cc1cccc2c3c(sc12)C(c1ccc(Cl)cc1)c1c(nc(CC(=O)Nc2ccccc2)[nH]c1=O)O3 (centres undefined)
(A) 60.1

(Q) Param item: "CC(C)(C)c1ccc(C(=O)Nc2nc3ccc(O)cc3s2)cc1"
(A) 77.3

(Q) Subsequent entry: "CCOc1ccccc1NC1=C(Cl)C(=O)c2nc(C)ccc2C1=O"
(A) 1.05

* * *

Tested on: DU-145 prostate
Experiment: NCI-60 one-dose screen, 48 h (100 = growth as untreated, 0 = no growth, -100 = all killed)
Details: 10 µM unless noted
The panel holds about 83,000 compounds, 20% with a hit somewhere; the sample as a whole holds those more often.
Lab note: anything with growth at or over 90% counts as rule met; the rest go in rule not met.

(Q) Given "CC(C)(C)c1ccc(-c2nnc(-c3nc4ccccc4nc3Cl)o2)cc1" , state whether its growth is at least 90%.
(A) rule not met

(Q) Try this molecule next: "O=C(CSc1nc2ccccc2c(=O)n1-c1ccccc1)Nc1cccc(C(=O)/C=C/c2ccccc2Cl)c1"
(A) rule met

(Q) Now give it for "CCn1c2ccccc2c2cc(-n3nncc3-c3ccccc3)ccc21" too.
(A) rule not met

(Q) Then "NS(=O)(=O)c1ccc(Nc2nc(SCC(=O)c3ccc(Cl)cc3)nc3c2CCCC3)cc1" ?
(A) rule not met

(Q) Would you mind doing "c1cn2c(ccc3nc(-c4cn[nH]c4)c4c(c32)CCCC4)n1" as well?
(A) rule not met

(Q) Queued: "CCOC(=O)c1c(Nc2ccccc2)nn2c(-c3ccccc3)ccnc12"
(A) rule met

(Q) Do the same for "O=[N+]([O-])c1cc(/C=N/Nc2nc(N/N=C/c3ccc(Cl)c([N+](=O)[O-])c3)nc(N3CCCCC3)n2)ccc1Cl" please
(A) rule not met

(Q) Do the same for "Cc1nn(-c2ccccc2)c2ncnc(N/N=C/c3cccc(O)c3)c12" please
(A) rule not met

(Q) Please do the same for "COc1cccc(N2CCN(c3ncnc4c3[nH]c3ccc(F)cc34)C[C@H]2C)c1" as well.
(A) rule not met

* * *

Test system: SK-MEL-28 melanoma
Experiment: NCI-60 one-dose screen, 48 h (100 = growth as untreated, 0 = no growth, -100 = all killed)
Conditions: 10 µM unless noted
This is part of a sample that, as a whole, favours compounds with a hit. Of some 83,000 tested, about 20% had one in any assay.
Rule: growth under 80% gives not satisfied, otherwise satisfied.

(Q) I'd appreciate it if you could say whether "CS(=O)(=O)c1ccc(-n2cc(/C=N/O)c(-c3ccccc3)n2)cc1" has growth at least equal to 80%.
(A) satisfied

(Q) Entry "Cc1ccc(C2=Nn3c(nnc3-c3ccccc3)SC2)cc1" please
(A) not satisfied

(Q) Now consider "O=S(=O)(NCCCNc1nccc(-c2[nH]c(-c3ccccc3)nc2-c2ccc(Cl)c(O)c2)n1)c1cccc2ccccc12" and answer again.
(A) not satisfied

(Q) Note, next up: CCO/C=N/C1=C(C#N)C(c2ccc(Cl)cc2)c2sc3c(CC)cccc3c2O1 (centres undefined)
(A) not satisfied

(Q) Again, but for "O=C(O)c1ccc(-n2cc(CNc3cccc(Cl)c3)c(-c3ccc(F)cc3)n2)cc1"
(A) satisfied

(Q) Now the same for "COc1cc(-c2nn(C(C)(C)C)cc2-c2ccnc(NCCCNS(=O)(=O)c3ccc(Cl)cc3)n2)ccc1Cl"
(A) satisfied

(Q) Note, next up: COc1cc2nc(Cl)nc(Nc3cccc(C4=Nc5c(N)nc(N)nc5NC(c5ccc(Br)cc5)C4)c3)c2cc1OC (centres undefined)
(A) satisfied

(Q) Field entry: "CCCCCCCn1cc2c(NCCc3ccccc3)ncnc2n1"
(A) satisfied

(Q) Now the same for "CC(=O)Nc1cccc(Nc2nc(N[C@H](C)c3ccccc3)c3ccccc3n2)c1"
(A) not satisfied

* * *

Test system: SW-620 colon
Experiment: NCI-60 one-dose screen, 48 h (100 = growth as untreated, 0 = no growth, -100 = all killed)
Details: 10 µM unless noted
Compounds without any hit were thinned out: in the full panel of roughly 83,000, 20% have a hit.
Checkbox rule: growth lower than 50% = satisfied; growth not lower than 50% = not satisfied.

(Q) Would you kindly verify if growth of CCCn1cnc2c(c1=N)C(c1ccc(F)cc1)c1sc3c(C)cccc3c1O2 (stereo not given) is strictly less than 50%?
(A) satisfied

(Q) Next record, please: "COc1ccc2[nH]cc(/C=N/Nc3nc4ccccc4s3)c2c1"
(A) not satisfied

(Q) Now give it for "COCCNc1ccc2ncc(C#Cc3cncc(C(=O)Nc4ccc(CN5CCN(C)CC5)c(C(F)(F)F)c4)c3)n2n1" too.
(A) satisfied

(Q) Then O=C1CC(=O)N2CSCN(C(c3ccccc3)c3nc4ncncc4[nH]3)C2=N1 (stereo not given) ?
(A) not satisfied

(Q) Field entry: CCNC(=O)N1CCc2cc(OC)c(OCCc3ccc(OC)cc3)cc2C1c1ccc(OC)cc1C (stereo not given)
(A) satisfied

(Q) And for "O=c1[nH]c(Sc2sc3ccc(Cl)cc3c2CBr)nc(=S)[nH]1" ?
(A) satisfied

(Q) Now the same for "O=C(Nc1cccc(C(F)(F)F)c1)c1cc(-c2ccc(F)cc2F)ccc1O"
(A) satisfied

(Q) What about "COc1ccccc1-n1cc(C#N)c(N)c1C(=O)c1ccc(Br)cc1" ?
(A) satisfied

(Q) And the next one, "COc1cc(-c2nc(SC(C)C)n(C(C)C)c(=O)c2C#N)ccc1OCc1ccccc1" ?
(A) not satisfied

(Q) Would you mind doing "COc1ccc(NC2=C(Cl)C(=O)c3nc(C)ccc3C2=O)cc1OC" as well?
(A) not satisfied
